# TARGET OR SYSTEM: UniProt:O75907
# Sequence (O75907 1-488): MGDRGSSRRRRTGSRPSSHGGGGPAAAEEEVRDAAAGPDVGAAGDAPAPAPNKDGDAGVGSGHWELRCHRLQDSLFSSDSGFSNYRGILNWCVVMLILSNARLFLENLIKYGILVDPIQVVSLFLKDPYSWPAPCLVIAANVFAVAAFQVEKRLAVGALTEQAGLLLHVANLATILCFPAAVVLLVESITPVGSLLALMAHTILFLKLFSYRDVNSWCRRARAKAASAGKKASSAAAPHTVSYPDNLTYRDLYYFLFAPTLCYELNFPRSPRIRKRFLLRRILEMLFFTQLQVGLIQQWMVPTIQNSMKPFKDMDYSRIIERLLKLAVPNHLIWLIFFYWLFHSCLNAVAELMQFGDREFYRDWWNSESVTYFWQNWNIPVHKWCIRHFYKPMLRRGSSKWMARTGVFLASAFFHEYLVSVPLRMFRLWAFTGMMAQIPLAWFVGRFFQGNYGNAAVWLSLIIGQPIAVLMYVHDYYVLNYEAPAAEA
# PROTOCOL DESCRIPTION: In-vitro DGAT1 assay (14C oleoyl CoA, hDGAT1 microsomes from Sf9 cells)
# EXPERIMENTAL CONDITIONS: read-out: % Inhibition of hDGAT1
The reader will find reported inhibition at 1 µM values listed item by item below.

Known results for compounds:
{"columns": ["COMPOUND", "REPORTED MEASUREMENT"],
 "data": [
  ["O=C(Nc1ccc(-c2ccc3c(c2)C(=O)N(C2(C(=O)O)CCC2)C3)cc1)c1ccc(Cl)cc1 [Example 578]", "> 50%"],
  ["CC(C)[C@@H](C(=O)O)N1Cc2ccc(-c3ccc(NC(=O)Nc4ccccc4Oc4ccccc4)cc3)cc2C1=O [Example 48]", "> 50%"],
  ["CCCCc1ccc(C(=O)Nc2ccc(-c3ccc4c(c3)C(=O)N([C@H](C(=O)O)C(C)C)C4)cc2)cc1 [Example 164]", "> 50%"],
  ["CCCCc1ccc(C(=O)Nc2ccc(-c3ccc4c(c3)C(=O)N([C@H](C(=O)O)C(C)C)C4)cc2)nc1 [Example 649]", "> 50%"],
  ["CC(C)[C@@H](C(=O)O)N1Cc2ccc(-c3ccc(NC(=O)c4ccc5ccccc5c4)cc3C(F)(F)F)cc2C1=O [Example 428]", "10 to 50%"]
]}

Entry CC(C)[C@@H](C(=O)O)N1Cc2ccc(-c3ccc(NC(=O)NC4CCCCC4)cc3)cc2C1=O [Example 34] — recorded inhibition at 1 µM = > 50%

Entry CC(C)[C@@H](C(=O)O)N1Cc2ccc(-c3ccc(NC(=O)Nc4ccc(C#N)cc4)cc3)cc2C1=O [Example 40] — recorded inhibition at 1 µM = > 50%

Entry CC(C)[C@@H](C(=O)O)N1Cc2ccc(-c3ccc(NC(=O)C4CCCCC4)cc3)cc2C1=O [Example 118] — recorded inhibition at 1 µM = > 50%

Hey, just so you know, these numbers are from patent US8748426B2.
